- Study target: DNA topoisomerase 1 (Homo sapiens) (UniProt P11387)
- Test name: Inhibition of recombinant topoisomerase 1 (unknown origin) assessed as DNA cleavage using 3'-[32P]-labeled 117-bp DNA oligonucleotide at 1 uM by PAGE assay
- Parameters: scale not given: the % may be the effect or the level left
Criterion met means recorded Activity is 50% or above; Criterion not met means it is below 50%.

Lookup: Is it the case that `O=C1c2ccccc2-c2c1c1cc(C(F)(F)F)ccc1c(=O)n2CCCn1ccnc1` has Activity reaching or exceeding 50%?
Found: Criterion not met

Lookup: Is it the case that `O=C1c2ccccc2-c2c1c1ccc(F)cc1c(=O)n2CCCn1ccnc1` has Activity reaching or exceeding 50%?
Found: Criterion met

Lookup: Is it the case that `O=C1c2ccccc2-c2c1c1ccc(Br)cc1c(=O)n2CCCN1CCOCC1` has Activity reaching or exceeding 50%?
Found: Criterion met

* * *

- Test name: Growth inhibition of human NCI60 cells assessed as cell growth at 10 uM
- Format: functional
- Condition parameters: read-out: Activity
# growth at 10 µM values compiled below
Return type: number; implicit unit %.

Note to self: growth at 10 µM recorded for `O=C1c2ccccc2-c2c1c1ccc(I)cc1c(=O)n2CCCN1CCOCC1` was 96

Note to self: growth at 10 µM recorded for `O=C1c2ccccc2-c2c1c1ccc(I)cc1c(=O)n2C[C@H](O)CO` was 39.7

Note to self: growth at 10 µM recorded for `O=C1c2ccccc2-c2c1c1ccc(Br)cc1c(=O)n2CCCN1CCOCC1` was 84

Note to self: growth at 10 µM recorded for `CSc1ccc2c3c(n(CCCn4ccnc4)c(=O)c2c1)-c1ccccc1C3=O` was 42.6

Note to self: growth at 10 µM recorded for `O=C1c2ccccc2-c2c1c1ccncc1c(=O)n2CCCn1ccnc1` was 47.5

Note to self: growth at 10 µM recorded for `CS(=O)(=O)c1ccc2c3c(n(CCCn4ccnc4)c(=O)c2c1)-c1ccccc1C3=O` was 59.4

Note to self: growth at 10 µM recorded for `CSc1ccc2c3c(n(C[C@H](O)CO)c(=O)c2c1)-c1ccccc1C3=O` was 39.7

Note to self: growth at 10 µM recorded for `COC(=O)c1ccc2c3c(n(CCCN4CCOCC4)c(=O)c2c1)-c1ccccc1C3=O` was 87.5

* * *

# Activity values compiled below
- Study target: DNA topoisomerase 1 (Homo sapiens) (UniProt P11387)
- Test name: Inhibition of recombinant topoisomerase 1 (unknown origin) assessed as DNA cleavage using 3'-[32P]-labeled 117-bp DNA oligonucleotide at 1 uM by PAGE assay
- Set-up: scale not given: the % may be the effect or the level left
Return type: number; implicit unit %.

As a guide, the following entries are already answered.
- Smiles notation: "CN(C)CCCn1c2c(c3ccncc3c1=O)C(=O)c1ccccc1-2"
  Assay value: 50
- Smiles notation: "COC(=O)c1ccc2c3c(n(CCCn4ccnc4)c(=O)c2c1)-c1ccccc1C3=O"
  Assay value: 50
- Smiles notation: "O=C1c2ccccc2-c2c1c1ccc(I)cc1c(=O)n2CCCn1ccnc1"
  Assay value: 50
- Smiles notation: "COC(=O)c1ccc2c3c(n(CCCN4CCOCC4)c(=O)c2c1)-c1ccccc1C3=O"
  Assay value: 20
- Smiles notation: "CS(=O)(=O)c1ccc2c3c(n(CCCn4ccnc4)c(=O)c2c1)-c1ccccc1C3=O"
  Assay value: 50

Let us move to another entry and its Activity.
Form field, Activity with DNA topoisomerase 1 (Homo sapiens) (UniProt P11387), item `CS(=O)(=O)c1ccc2c3c(n(C[C@H](O)CO)c(=O)c2c1)-c1ccccc1C3=O` : 50

* * *

- Test name: Growth inhibition of human NCI60 cells assessed as cell growth at 10 uM
- Type: functional
- Condition parameters: read-out: Activity
Observable: growth at 10 µM (%)
Return type: number; implicit unit %.

- Smiles notation: "O=C1c2ccccc2-c2c1c1ccc(F)cc1c(=O)n2CCCN1CCOCC1"
  Assay value: 30.3
- Smiles notation: "O=C1c2ccccc2-c2c1c1cc(C(F)(F)F)ccc1c(=O)n2CCCn1ccnc1"
  Assay value: 49.3
- Smiles notation: "O=C1c2ccccc2-c2c1c1ccc(Cl)cc1c(=O)n2CCCn1ccnc1"
  Assay value: 0.06
- Smiles notation: "CS(=O)(=O)c1ccc2c3c(n(C[C@H](O)CO)c(=O)c2c1)-c1ccccc1C3=O"
  Assay value: 96.7
- Smiles notation: "O=C1c2ccccc2-c2c1c1ccc(Cl)cc1c(=O)n2C[C@H](O)CO"
  Assay value: 14.5

Note to self: growth at 10 µM recorded for `O=C1c2ccccc2-c2c1c1ccc(Cl)cc1c(=O)n2CCCN1CCOCC1` was 44.7

Note to self: growth at 10 µM recorded for `N#Cc1ccc2c3c(n(CCCN4CCOCC4)c(=O)c2c1)-c1ccccc1C3=O` was 102

Note to self: growth at 10 µM recorded for `O=C1c2ccccc2-c2c1c1ccc(F)cc1c(=O)n2C[C@H](O)CO` was 61.1

Note to self: growth at 10 µM recorded for `O=C1c2ccccc2-c2c1c1cc(C(F)(F)F)ccc1c(=O)n2C[C@H](O)CO` was 82.7

Note to self: growth at 10 µM recorded for `O=C1c2ccccc2-c2c1c1ccc(Br)cc1c(=O)n2C[C@H](O)CO` was 46.8

Note to self: growth at 10 µM recorded for `O=C1c2ccccc2-c2c1c1ccc(C(F)(F)F)cc1c(=O)n2C[C@H](O)CO` was 52.2

Note to self: growth at 10 µM recorded for `N#Cc1ccc2c3c(n(C[C@H](O)CO)c(=O)c2c1)-c1ccccc1C3=O` was 42.6

Note to self: growth at 10 µM recorded for `O=C1c2ccccc2-c2c1c1ccc(C(F)(F)F)cc1c(=O)n2CCCn1ccnc1` was 6.57

* * *

- Study target: DNA topoisomerase 1 (Homo sapiens) (UniProt P11387)
- Sequence (whole entry): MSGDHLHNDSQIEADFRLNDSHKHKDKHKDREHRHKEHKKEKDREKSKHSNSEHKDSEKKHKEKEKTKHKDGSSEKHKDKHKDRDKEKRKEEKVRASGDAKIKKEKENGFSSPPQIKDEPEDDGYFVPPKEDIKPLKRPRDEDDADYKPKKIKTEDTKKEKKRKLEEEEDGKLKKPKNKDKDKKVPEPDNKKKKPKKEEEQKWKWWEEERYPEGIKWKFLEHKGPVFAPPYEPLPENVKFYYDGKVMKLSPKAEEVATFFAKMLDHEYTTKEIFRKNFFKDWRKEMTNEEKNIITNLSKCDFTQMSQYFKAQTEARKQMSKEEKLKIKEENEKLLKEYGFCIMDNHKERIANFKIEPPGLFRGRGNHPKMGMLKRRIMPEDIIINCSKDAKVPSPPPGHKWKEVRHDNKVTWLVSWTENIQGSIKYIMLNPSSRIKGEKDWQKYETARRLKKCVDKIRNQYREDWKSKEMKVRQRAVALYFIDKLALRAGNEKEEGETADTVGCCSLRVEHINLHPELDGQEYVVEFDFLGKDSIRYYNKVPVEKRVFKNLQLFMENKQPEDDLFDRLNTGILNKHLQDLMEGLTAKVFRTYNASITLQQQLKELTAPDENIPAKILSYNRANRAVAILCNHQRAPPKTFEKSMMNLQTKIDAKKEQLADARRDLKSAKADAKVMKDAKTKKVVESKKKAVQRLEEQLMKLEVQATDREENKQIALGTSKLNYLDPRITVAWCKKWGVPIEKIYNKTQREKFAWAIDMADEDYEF
- Test name: Inhibition of recombinant topoisomerase 1 (unknown origin) assessed as DNA cleavage using 3'-[32P]-labeled 117-bp DNA oligonucleotide at 1 uM by PAGE assay
- Set-up: scale not given: the % may be the effect or the level left
# Activity values compiled below

Note to self: Activity recorded for `O=C1c2ccccc2-c2c1c1ccc(F)cc1c(=O)n2C[C@H](O)CO` was 50%

* * *

- Study target: DNA topoisomerase 1 (Homo sapiens) (UniProt P11387)
- Test name: Inhibition of recombinant topoisomerase 1 (unknown origin) assessed as DNA cleavage using 3'-[32P]-labeled 117-bp DNA oligonucleotide at 1 uM by PAGE assay
- Set-up: scale not given: the % may be the effect or the level left
Observable: Activity (%)
Return type: number; implicit unit %.

Form field, Activity with DNA topoisomerase 1 (Homo sapiens) (UniProt P11387), item `O=C1c2ccccc2-c2c1c1ccc(I)cc1c(=O)n2CCCN1CCOCC1` : 20

* * *

# Activity values compiled below
- Study target: DNA topoisomerase 1 (Homo sapiens) (UniProt P11387)
- Sequence (whole entry): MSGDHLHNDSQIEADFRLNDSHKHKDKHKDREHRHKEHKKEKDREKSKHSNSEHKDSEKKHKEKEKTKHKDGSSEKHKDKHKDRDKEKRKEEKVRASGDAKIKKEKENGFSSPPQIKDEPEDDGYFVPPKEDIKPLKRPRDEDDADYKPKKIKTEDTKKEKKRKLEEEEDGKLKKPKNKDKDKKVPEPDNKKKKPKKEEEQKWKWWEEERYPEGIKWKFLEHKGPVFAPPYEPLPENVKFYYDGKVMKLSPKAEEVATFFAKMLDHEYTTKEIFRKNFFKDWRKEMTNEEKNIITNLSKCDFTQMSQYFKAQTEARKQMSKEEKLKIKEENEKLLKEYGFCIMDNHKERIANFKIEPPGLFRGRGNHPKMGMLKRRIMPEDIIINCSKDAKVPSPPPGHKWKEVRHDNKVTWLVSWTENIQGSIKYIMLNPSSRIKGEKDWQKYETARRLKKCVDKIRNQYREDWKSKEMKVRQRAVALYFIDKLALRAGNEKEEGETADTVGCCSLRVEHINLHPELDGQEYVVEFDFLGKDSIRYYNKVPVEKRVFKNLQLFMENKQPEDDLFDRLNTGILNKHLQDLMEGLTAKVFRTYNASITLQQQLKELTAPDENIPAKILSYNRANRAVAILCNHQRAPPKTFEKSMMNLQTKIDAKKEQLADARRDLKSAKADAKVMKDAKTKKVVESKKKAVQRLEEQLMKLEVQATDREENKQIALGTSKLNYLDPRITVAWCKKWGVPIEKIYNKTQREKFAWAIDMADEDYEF
- Test name: Inhibition of recombinant topoisomerase 1 (unknown origin) assessed as DNA cleavage using 3'-[32P]-labeled 117-bp DNA oligonucleotide at 1 uM by PAGE assay
- Parameters: scale not given: the % may be the effect or the level left
Return type: number; implicit unit %.

Note to self: Activity recorded for `O=C1c2ccccc2-c2c1c1ccc(C(F)(F)F)cc1c(=O)n2CCCn1ccnc1` was 20

Note to self: Activity recorded for `O=C1c2ccccc2-c2c1c1ccc(F)cc1c(=O)n2CCCN1CCOCC1` was 75

Note to self: Activity recorded for `O=C1c2ccccc2-c2c1c1ccc(Br)cc1c(=O)n2CCCn1ccnc1` was 50

Note to self: Activity recorded for `N#Cc1ccc2c3c(n(CCCN4CCOCC4)c(=O)c2c1)-c1ccccc1C3=O` was 50
